# Measurement Setup: 22 °C
Value Type: solubility (mM)
Report as a plain number; the unit mM is understood.

Fill blank: measured solubility of the compound CC(=O)NCc1c(I)c(NC(C)=O)c(I)c(C(=O)O)c1I is ____.
4.78

---

# Measurement Setup: 25 °C
Value Type: log10(solubility) (log10 of the value in mM)
Please be aware that the numbers have been log10-transformed from solubility in mM.

Some entries whose results are on file:
1) NCCNc1cccc2ccccc12 ... 1.03
2) Nc1ccc(S(=O)(=O)Nc2ccnn2-c2ccccc2)cc1 ... 0.68
3) CC(C)(C)CC(=O)OCC(=O)[C@@]12OC(C)(C)O[C@@H]1C[C@H]1[C@@H]3CCC4=CC(=O)C=C[C@]4(C)[C@@]3(F)[C@@H](O)C[C@@]12C ... -2.12
4) O=NN(CCCl)C(=O)NCCCl ... 1.27

Fill blank: measured log10(solubility) of the molecule O=C(N/N=C/c1ccccc1O)c1ccncc1 is ____.
-0.68

Same for O=Nc1c(O)ccc2ccccc12
0.76

---

Measured log10 solubility by item
Please be aware that the numbers have been log10-transformed from solubility in mM.

Some entries whose results are on file:
1) CCCCOC(=O)C=Cc1ccccc1 ... 1.39
2) COc1cc(O)c(C(=O)c2ccccc2)cc1S(=O)(=O)O ... 2.91
3) OC[C@H]1O[C@@H](n2cnc3cncnc32)[C@H](O)[C@@H]1O ... 2.60
4) O=C(O)CCC(=O)OOC(=O)CCC(=O)O ... 2.15
5) O=C(NCN1CCOCC1)c1cnccn1 ... 3.18

Fill blank: measured log10 solubility of the molecule CCOCCOC(=O)C=Cc1ccc(OC)cc1 is ____.
0.30

Same for C=C1C=CC(=O)O1
2.02

Same for C#CC(C)(CC)OC(N)=O (stereo not drawn)
2.05

Sourced from the OPERA property sets (Mansouri et al. 2018)
